Test system: Respiratory Syncytial Virus
Experiment: microbe, parasite or virus in culture
Assay type: cell-based
Conditions: human respiratory syncytial virus, 168 h; antiviral activity; protection against cytopathology caused by RSV in HeLa cells, MTT read-out seven days after infection
Description: The percent protection against cytopathology caused by viruses (antiviral activity or EC50) achieved by tested compounds and their cytotoxicity (CC50) are both calculated from dose-response curves. Automated tetrazolium-based colorimetric assays were used for determination of EC50 and CC50 of test compounds. […] Finally, the absorbances were read in an eight-channel computer-controlled photometer (Multiskan MCC, Flow Laboratories) at two wavelengths (540 and 690 nm). […]
pEC50: −log10 of the molar value.
REPORTED ENDPOINT: pEC50

compound="Cc1ccc(CCCO)c(NCc2ccc3nc(C(N)=O)n(Cc4nc(C)ccc4O)c3c2)c1 [d-10]" endpoint_value=6.20

Where these numbers come from: patent US7884215B2
